Molecular target: T1, ECF34_1384
T1 chain: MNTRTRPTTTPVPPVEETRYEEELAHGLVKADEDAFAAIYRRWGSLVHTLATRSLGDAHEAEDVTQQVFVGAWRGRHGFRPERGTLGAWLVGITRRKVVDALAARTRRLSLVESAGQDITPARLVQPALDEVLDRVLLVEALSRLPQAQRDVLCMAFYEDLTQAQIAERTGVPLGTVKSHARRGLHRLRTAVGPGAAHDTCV
I'd be grateful if you could share measured fold repression for these entries.

Entry AS16_973 (protein) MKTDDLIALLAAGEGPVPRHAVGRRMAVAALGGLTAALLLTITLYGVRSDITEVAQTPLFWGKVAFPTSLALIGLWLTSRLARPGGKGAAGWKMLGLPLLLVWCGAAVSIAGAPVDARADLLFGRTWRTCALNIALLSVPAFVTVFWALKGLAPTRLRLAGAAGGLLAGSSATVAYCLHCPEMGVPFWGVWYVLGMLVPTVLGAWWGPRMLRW — recorded fold repression = 0.757

Entry AS03_1244 (protein) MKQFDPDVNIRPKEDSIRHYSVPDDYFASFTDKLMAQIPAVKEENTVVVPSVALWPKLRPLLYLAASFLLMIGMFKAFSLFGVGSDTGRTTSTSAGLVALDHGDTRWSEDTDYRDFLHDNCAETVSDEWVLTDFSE — recorded fold repression = 1.65

Entry AS14_1324 (protein) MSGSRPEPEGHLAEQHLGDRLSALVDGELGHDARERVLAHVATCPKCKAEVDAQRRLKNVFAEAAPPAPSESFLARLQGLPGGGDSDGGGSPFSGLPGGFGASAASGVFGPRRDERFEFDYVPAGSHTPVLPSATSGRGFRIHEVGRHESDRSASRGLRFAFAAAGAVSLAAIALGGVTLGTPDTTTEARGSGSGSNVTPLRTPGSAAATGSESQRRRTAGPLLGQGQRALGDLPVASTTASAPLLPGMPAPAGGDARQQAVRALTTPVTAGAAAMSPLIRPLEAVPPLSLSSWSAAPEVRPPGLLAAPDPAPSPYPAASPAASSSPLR — recorded fold repression = 2.76
